Entries and their measured viscosity follow.
Test: mn = molality of the nth substance listed, in mol/kg
Conditions: 333.15 K; 101 kPa; Liquid; m2 = 0

{"compound": "c1ccccc1 [benzene] + CC1=CC(=O)c2ccccc2C1=O", "viscosity [mPa·s]": 0.3932}
{"compound": "Cc1ccc(C)cc1 [1,4-dimethylbenzene] + CC1=CC(=O)c2ccccc2C1=O", "viscosity [mPa·s]": 0.4189}
{"compound": "Cc1cccc(C)c1 [1,3-dimethylbenzene] + CC1=CC(=O)c2ccccc2C1=O", "viscosity [mPa·s]": 0.413}
{"compound": "Cc1ccccc1C [1,2-dimethylbenzene] + CC1=CC(=O)c2ccccc2C1=O", "viscosity [mPa·s]": 0.5105}
{"compound": "CCc1ccccc1 [ethylbenzene] + CC1=CC(=O)c2ccccc2C1=O", "viscosity [mPa·s]": 0.4371}
{"compound": "Cc1ccccc1 [toluene] + CC1=CC(=O)c2ccccc2C1=O", "viscosity [mPa·s]": 0.3835}

----------
Test: mn = molality of the nth substance listed, in mol/kg
Details: 303.15 K; 101 kPa; Liquid; m2 = 0
± gives the expanded uncertainty stated by the source.
Listed here are compounds together with their documented mass density.

{"compound": "CCc1ccccc1 [ethylbenzene] + CC1=CC(=O)c2ccccc2C1=O", "mass density": "858 ± 0.7 kg/m3"}
{"compound": "Cc1ccc(C)cc1 [1,4-dimethylbenzene] + CC1=CC(=O)c2ccccc2C1=O", "mass density": "852 ± 0.7 kg/m3"}
{"compound": "Cc1ccccc1 [toluene] + CC1=CC(=O)c2ccccc2C1=O", "mass density": "857.5 ± 0.7 kg/m3"}
{"compound": "c1ccccc1 [benzene] + CC1=CC(=O)c2ccccc2C1=O", "mass density": "868 ± 0.7 kg/m3"}
{"compound": "Cc1cccc(C)c1 [1,3-dimethylbenzene] + CC1=CC(=O)c2ccccc2C1=O", "mass density": "855.6 ± 0.7 kg/m3"}
{"compound": "Cc1ccccc1C [1,2-dimethylbenzene] + CC1=CC(=O)c2ccccc2C1=O", "mass density": "872.1 ± 0.7 kg/m3"}

----------
Assay: mn = molality of the nth substance listed, in mol/kg
Conditions: 308.15 K; 101 kPa; Liquid; m2 = 0

{"compound": "Cc1ccc(C)cc1 [1,4-dimethylbenzene] + CC1=CC(=O)c2ccccc2C1=O", "viscosity [mPa·s]": 0.5374}
{"compound": "CCc1ccccc1 [ethylbenzene] + CC1=CC(=O)c2ccccc2C1=O", "viscosity [mPa·s]": 0.5691}
{"compound": "Cc1cccc(C)c1 [1,3-dimethylbenzene] + CC1=CC(=O)c2ccccc2C1=O", "viscosity [mPa·s]": 0.5201}
{"compound": "c1ccccc1 [benzene] + CC1=CC(=O)c2ccccc2C1=O", "viscosity [mPa·s]": 0.5232}
{"compound": "Cc1ccccc1 [toluene] + CC1=CC(=O)c2ccccc2C1=O", "viscosity [mPa·s]": 0.4933}
{"compound": "Cc1ccccc1C [1,2-dimethylbenzene] + CC1=CC(=O)c2ccccc2C1=O", "viscosity [mPa·s]": 0.69}

----------
Below: a set of entries, each annotated with reported viscosity.
Conditions: 328.15 K; 101 kPa; Liquid
endpoint: viscosity (mPa·s)

{"molecule": "CCc1ccccc1 [ethylbenzene]", "experimental-value": 0.4566}
{"molecule": "Cc1ccc(C)cc1 [1,4-dimethylbenzene]", "experimental-value": 0.4439}
{"molecule": "Cc1cccc(C)c1 [1,3-dimethylbenzene]", "experimental-value": 0.435}
{"molecule": "c1ccccc1 [benzene]", "experimental-value": 0.4145}
{"molecule": "Cc1ccccc1 [toluene]", "experimental-value": 0.4082}
{"molecule": "Cc1ccccc1C [1,2-dimethylbenzene]", "experimental-value": 0.5433}
